TARGET_DESC: EPHA6 (human) (UniProt Q9UF33)
Sequence (Q9UF33 whole entry, looked up): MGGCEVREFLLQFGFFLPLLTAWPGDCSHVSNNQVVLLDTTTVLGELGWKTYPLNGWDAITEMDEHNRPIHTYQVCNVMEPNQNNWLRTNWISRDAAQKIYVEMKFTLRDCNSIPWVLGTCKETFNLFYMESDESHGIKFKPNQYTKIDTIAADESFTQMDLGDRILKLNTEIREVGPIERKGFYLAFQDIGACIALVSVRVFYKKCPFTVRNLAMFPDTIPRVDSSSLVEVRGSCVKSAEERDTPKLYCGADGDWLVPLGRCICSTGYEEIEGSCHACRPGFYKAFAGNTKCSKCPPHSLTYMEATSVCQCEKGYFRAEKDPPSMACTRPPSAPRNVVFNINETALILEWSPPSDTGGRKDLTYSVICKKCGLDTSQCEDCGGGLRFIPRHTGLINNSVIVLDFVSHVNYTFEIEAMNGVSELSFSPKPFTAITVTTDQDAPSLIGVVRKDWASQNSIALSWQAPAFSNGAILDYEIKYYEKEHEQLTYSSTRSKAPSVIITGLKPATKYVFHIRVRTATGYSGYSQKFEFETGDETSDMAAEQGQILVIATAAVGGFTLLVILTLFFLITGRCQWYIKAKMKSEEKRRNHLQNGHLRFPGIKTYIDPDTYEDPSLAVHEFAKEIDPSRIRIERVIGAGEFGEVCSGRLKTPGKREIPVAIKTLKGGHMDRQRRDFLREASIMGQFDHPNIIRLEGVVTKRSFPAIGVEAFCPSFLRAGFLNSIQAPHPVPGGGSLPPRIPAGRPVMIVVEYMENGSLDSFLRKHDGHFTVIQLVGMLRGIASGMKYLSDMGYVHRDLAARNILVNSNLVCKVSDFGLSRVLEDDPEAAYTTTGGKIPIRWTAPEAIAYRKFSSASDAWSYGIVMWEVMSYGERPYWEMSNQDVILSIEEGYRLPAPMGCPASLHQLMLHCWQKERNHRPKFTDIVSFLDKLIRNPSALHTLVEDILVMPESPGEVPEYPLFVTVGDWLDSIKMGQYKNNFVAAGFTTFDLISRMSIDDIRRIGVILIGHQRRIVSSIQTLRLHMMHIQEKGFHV
EXPERIMENTAL_DETAILS: KINOMEscan competition binding
REPORTED_CONDITIONS: compound 10.0 µM
The reader will find reported kinase still bound, per cent of control values listed item by item below.
Form entry: value (%) — number only.

Enquiry: // lookup kinase still bound, per cent of control for O=C1Nc2cc(Br)ccc2/C1=C1/Nc2ccccc2/C1=N\O
Return: 34

Enquiry: // lookup kinase still bound, per cent of control for COc1ccc(CNC(=O)Nc2ncc([N+](=O)[O-])s2)cc1
Return: 100

Enquiry: // lookup kinase still bound, per cent of control for Cc1cnc(-c2cnc(NCCNc3ccc(C#N)cn3)nc2-c2ccc(Cl)cc2Cl)[nH]1
Return: 100

Enquiry: // lookup kinase still bound, per cent of control for Cn1cc(C2=C(c3ccc(Cl)cc3Cl)C(=O)NC2=O)c2ccccc21
Return: 100

###

TARGET_DESC: GSK3A (human)
EXPERIMENTAL_DETAILS: KINOMEscan competition binding
REPORTED_CONDITIONS: compound 10.0 µM
EXPERIMENTAL_ENDPOINT: kinase still bound, per cent of control (%)
Form entry: value (%) — number only.

Consider the reported kinase still bound, per cent of control for these compounds:
Enquiry: // lookup kinase still bound, per cent of control for O=C1Nc2cc(Br)ccc2/C1=C1/Nc2ccccc2/C1=N\O
Return: 0

Enquiry: // lookup kinase still bound, per cent of control for Cn1cc(C2=C(c3ccc(Cl)cc3Cl)C(=O)NC2=O)c2ccccc21
Return: 0

Enquiry: // lookup kinase still bound, per cent of control for Cc1cnc(-c2cnc(NCCNc3ccc(C#N)cn3)nc2-c2ccc(Cl)cc2Cl)[nH]1
Return: 0

Now for the compound whose kinase still bound, per cent of control we want.
Enquiry: // lookup kinase still bound, per cent of control for COc1ccc(CNC(=O)Nc2ncc([N+](=O)[O-])s2)cc1
Return: 0.1

###

TARGET_DESC: STK38 (human)
EXPERIMENTAL_DETAILS: KINOMEscan competition binding
REPORTED_CONDITIONS: compound 10.0 µM
EXPERIMENTAL_ENDPOINT: kinase still bound, per cent of control

Consider the reported kinase still bound, per cent of control for these compounds:
Enquiry: // lookup kinase still bound, per cent of control for O=C1Nc2cc(Br)ccc2/C1=C1/Nc2ccccc2/C1=N\O
Return: 86%

Enquiry: // lookup kinase still bound, per cent of control for COc1ccc(CNC(=O)Nc2ncc([N+](=O)[O-])s2)cc1
Return: 100%

Enquiry: // lookup kinase still bound, per cent of control for Cc1cnc(-c2cnc(NCCNc3ccc(C#N)cn3)nc2-c2ccc(Cl)cc2Cl)[nH]1
Return: 100%

New cases:
Enquiry: // lookup kinase still bound, per cent of control for Cn1cc(C2=C(c3ccc(Cl)cc3Cl)C(=O)NC2=O)c2ccccc21
Return: 100%

###

The reader will find reported kinase still bound, per cent of control values listed item by item below.
Tested on: ABL1 (human), P00519 [Q252H]
EXPERIMENTAL_DETAILS: KINOMEscan competition binding
REPORTED_CONDITIONS: compound 10.0 µM
Form entry: value (%) — number only.

Enquiry: Which kinase still bound, per cent of control is reported with ABL1 (human), P00519 [Q252H] for this entry: O=C1Nc2cc(Br)ccc2/C1=C1/Nc2ccccc2/C1=N\O ?
Return: 3.8

Enquiry: Which kinase still bound, per cent of control is reported with ABL1 (human), P00519 [Q252H] for this entry: COc1ccc(CNC(=O)Nc2ncc([N+](=O)[O-])s2)cc1 ?
Return: 100

Enquiry: Which kinase still bound, per cent of control is reported with ABL1 (human), P00519 [Q252H] for this entry: Cn1cc(C2=C(c3ccc(Cl)cc3Cl)C(=O)NC2=O)c2ccccc21 ?
Return: 100

New cases:
Enquiry: Which kinase still bound, per cent of control is reported with ABL1 (human), P00519 [Q252H] for this entry: Cc1cnc(-c2cnc(NCCNc3ccc(C#N)cn3)nc2-c2ccc(Cl)cc2Cl)[nH]1 ?
Return: 100

###

The reader will find reported kinase still bound, per cent of control values listed item by item below.
TARGET_DESC: PAK6 (human)
EXPERIMENTAL_DETAILS: KINOMEscan competition binding
REPORTED_CONDITIONS: compound 10.0 µM
Note: a bare number is incomplete; add the unit.

Consider the reported kinase still bound, per cent of control for these compounds:
Enquiry: // lookup kinase still bound, per cent of control for O=C1Nc2cc(Br)ccc2/C1=C1/Nc2ccccc2/C1=N\O
Return: 24%

Enquiry: // lookup kinase still bound, per cent of control for Cc1cnc(-c2cnc(NCCNc3ccc(C#N)cn3)nc2-c2ccc(Cl)cc2Cl)[nH]1
Return: 100%

Enquiry: // lookup kinase still bound, per cent of control for Cn1cc(C2=C(c3ccc(Cl)cc3Cl)C(=O)NC2=O)c2ccccc21
Return: 86%

New cases:
Enquiry: // lookup kinase still bound, per cent of control for COc1ccc(CNC(=O)Nc2ncc([N+](=O)[O-])s2)cc1
Return: 100%

###

TARGET_DESC: CSNK1G3 (human) (UniProt Q9Y6M4)
Sequence (Q9Y6M4 whole entry, looked up): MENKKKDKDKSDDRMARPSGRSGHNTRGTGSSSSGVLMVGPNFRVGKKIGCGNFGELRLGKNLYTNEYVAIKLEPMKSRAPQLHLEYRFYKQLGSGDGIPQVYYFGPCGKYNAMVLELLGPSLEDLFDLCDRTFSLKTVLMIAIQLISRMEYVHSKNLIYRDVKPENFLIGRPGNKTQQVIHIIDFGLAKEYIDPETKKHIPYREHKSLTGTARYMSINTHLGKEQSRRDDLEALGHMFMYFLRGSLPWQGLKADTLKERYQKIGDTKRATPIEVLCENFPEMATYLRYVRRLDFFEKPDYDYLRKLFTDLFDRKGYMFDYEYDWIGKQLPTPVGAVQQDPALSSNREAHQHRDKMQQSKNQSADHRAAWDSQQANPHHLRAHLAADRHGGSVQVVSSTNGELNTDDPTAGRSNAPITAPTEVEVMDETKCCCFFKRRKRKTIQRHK
EXPERIMENTAL_DETAILS: KINOMEscan competition binding
REPORTED_CONDITIONS: compound 10.0 µM
EXPERIMENTAL_ENDPOINT: kinase still bound, per cent of control (%)
Form entry: value (%) — number only.

Enquiry: Which kinase still bound, per cent of control is reported with CSNK1G3 (human) (UniProt Q9Y6M4) for this entry: O=C1Nc2cc(Br)ccc2/C1=C1/Nc2ccccc2/C1=N\O ?
Return: 81

Enquiry: Which kinase still bound, per cent of control is reported with CSNK1G3 (human) (UniProt Q9Y6M4) for this entry: Cc1cnc(-c2cnc(NCCNc3ccc(C#N)cn3)nc2-c2ccc(Cl)cc2Cl)[nH]1 ?
Return: 56

Enquiry: Which kinase still bound, per cent of control is reported with CSNK1G3 (human) (UniProt Q9Y6M4) for this entry: COc1ccc(CNC(=O)Nc2ncc([N+](=O)[O-])s2)cc1 ?
Return: 59

Now for the compound whose kinase still bound, per cent of control we want.
Enquiry: Which kinase still bound, per cent of control is reported with CSNK1G3 (human) (UniProt Q9Y6M4) for this entry: Cn1cc(C2=C(c3ccc(Cl)cc3Cl)C(=O)NC2=O)c2ccccc21 ?
Return: 69

###

The reader will find reported kinase still bound, per cent of control values listed item by item below.
TARGET_DESC: PAK1 (human)
EXPERIMENTAL_DETAILS: KINOMEscan competition binding
REPORTED_CONDITIONS: compound 10.0 µM
Note: a bare number is incomplete; add the unit.

Consider the reported kinase still bound, per cent of control for these compounds:
Enquiry: // lookup kinase still bound, per cent of control for Cc1cnc(-c2cnc(NCCNc3ccc(C#N)cn3)nc2-c2ccc(Cl)cc2Cl)[nH]1
Return: 100%

Enquiry: // lookup kinase still bound, per cent of control for Cn1cc(C2=C(c3ccc(Cl)cc3Cl)C(=O)NC2=O)c2ccccc21
Return: 80%

Enquiry: // lookup kinase still bound, per cent of control for O=C1Nc2cc(Br)ccc2/C1=C1/Nc2ccccc2/C1=N\O
Return: 68%

Now for the compound whose kinase still bound, per cent of control we want.
Enquiry: // lookup kinase still bound, per cent of control for COc1ccc(CNC(=O)Nc2ncc([N+](=O)[O-])s2)cc1
Return: 94%

###

TARGET_DESC: CDK8 (human)
EXPERIMENTAL_DETAILS: KINOMEscan competition binding
REPORTED_CONDITIONS: compound 10.0 µM
The reader will find reported kinase still bound, per cent of control values listed item by item below.
Note: a bare number is incomplete; add the unit.

Consider the reported kinase still bound, per cent of control for these compounds:
Enquiry: // lookup kinase still bound, per cent of control for Cn1cc(C2=C(c3ccc(Cl)cc3Cl)C(=O)NC2=O)c2ccccc21
Return: 100%

Enquiry: // lookup kinase still bound, per cent of control for Cc1cnc(-c2cnc(NCCNc3ccc(C#N)cn3)nc2-c2ccc(Cl)cc2Cl)[nH]1
Return: 100%

New cases:
Enquiry: // lookup kinase still bound, per cent of control for COc1ccc(CNC(=O)Nc2ncc([N+](=O)[O-])s2)cc1
Return: 100%

Enquiry: // lookup kinase still bound, per cent of control for O=C1Nc2cc(Br)ccc2/C1=C1/Nc2ccccc2/C1=N\O
Return: 100%

###

TARGET_DESC: UniProt Q8IVW4
Sequence (Q8IVW4 whole entry, looked up): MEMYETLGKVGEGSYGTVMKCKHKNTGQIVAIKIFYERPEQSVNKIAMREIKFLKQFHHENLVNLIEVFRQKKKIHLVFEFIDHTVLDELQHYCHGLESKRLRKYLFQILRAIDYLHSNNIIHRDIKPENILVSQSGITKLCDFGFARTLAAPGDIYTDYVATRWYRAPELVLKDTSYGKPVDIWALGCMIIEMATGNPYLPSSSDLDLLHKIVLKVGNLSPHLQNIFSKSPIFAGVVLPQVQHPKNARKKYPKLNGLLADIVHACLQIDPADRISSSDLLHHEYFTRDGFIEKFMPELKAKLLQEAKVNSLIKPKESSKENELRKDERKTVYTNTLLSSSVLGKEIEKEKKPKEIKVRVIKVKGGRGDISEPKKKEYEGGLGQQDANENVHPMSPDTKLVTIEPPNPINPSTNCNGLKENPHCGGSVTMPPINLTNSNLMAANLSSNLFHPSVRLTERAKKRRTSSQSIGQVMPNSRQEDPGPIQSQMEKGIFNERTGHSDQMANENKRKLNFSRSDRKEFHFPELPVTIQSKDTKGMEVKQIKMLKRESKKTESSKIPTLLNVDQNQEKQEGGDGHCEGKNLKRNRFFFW
EXPERIMENTAL_DETAILS: KINOMEscan competition binding
REPORTED_CONDITIONS: compound 10.0 µM
The reader will find reported kinase still bound, per cent of control values listed item by item below.
Note: a bare number is incomplete; add the unit.

Consider the reported kinase still bound, per cent of control for these compounds:
Enquiry: // lookup kinase still bound, per cent of control for O=C1Nc2cc(Br)ccc2/C1=C1/Nc2ccccc2/C1=N\O
Return: 82%

Enquiry: // lookup kinase still bound, per cent of control for COc1ccc(CNC(=O)Nc2ncc([N+](=O)[O-])s2)cc1
Return: 76%

Enquiry: // lookup kinase still bound, per cent of control for Cn1cc(C2=C(c3ccc(Cl)cc3Cl)C(=O)NC2=O)c2ccccc21
Return: 100%

Now for the compound whose kinase still bound, per cent of control we want.
Enquiry: // lookup kinase still bound, per cent of control for Cc1cnc(-c2cnc(NCCNc3ccc(C#N)cn3)nc2-c2ccc(Cl)cc2Cl)[nH]1
Return: 52%
